- Test system: Phosphorylation of STAT6 in human PBMC (CD19+ B cells)
- PROCEDURE_SUMMARY: Phosphorylated STAT6 (pSTAT6) flow cytometry assay in human PBMC, IL-4 stimulated
- Format: cell-based
- ASSAY_CONTEXT: compound 1 hour, 1 ng/ml IL-4 for 15 minutes, read-out: STAT6 IL4 pSTAT6 assay in PBMC: Average IC50
pIC50: −log10 of the molar value.
MEASURED_ENDPOINT: pIC50

Below, each entry is followed by its recorded pIC50 result.
LINE_NOTATION: CN(C)C(=O)c1cc2cc(C3=CCCN(C(=O)Cc4ccccn4)C3)ccc2o1
pIC50: < 4.00

LINE_NOTATION: CN(C)C(=O)c1cc2cc(C3=CCCN(C(=O)CCc4ccccc4)C3)ccc2o1
pIC50: < 4.00

LINE_NOTATION: O=C(CCn1ccnn1)N1CCC=C(c2ccc3occc3c2)C1
pIC50: < 4.00

LINE_NOTATION: CN(C)C(=O)c1cc2ccc(C3=CCCN(C(=O)c4cccnc4-c4cc(F)cc(F)c4)C3)cc2[nH]1
pIC50: 4.00 to 5.00

Switching to the query record.
Reported pIC50 for Phosphorylation of STAT6 in human PBMC (CD19+ B cells), given "CN(C)C(=O)c1cc2ccc(C3=CCCN(C(=O)CCn4ccnn4)C3)c(F)c2[nH]1" ?
> 7.00

Where do the numbers come from? From patent US20250214977A1.
